# experimentalSystem: SpCyk3
# testName: SPOT peptide array binding signal intensity (averaged, normalized) (arbitrary units (background-subtracted, floor 0; scale differs between SH3 domains)); higher = stronger binding of the SH3 domain to the peptide
SPOT peptide array binding signal intensity: recorded values
// no unit, no text: just the number

Example entries and their recorded answers appear below.
| binder | reportedResult |
| --- | --- |
| QLLNPNRRAPRRPLS | 6 |
| SRYRRPLTLLLLKPF | 4 |

Look up SPOT peptide array binding signal intensity of "KRNRLKILLPFLEQS" and report it.
3

Look up SPOT peptide array binding signal intensity of "GKLKHIPRRPYEIER" and report it.
2.5

Look up SPOT peptide array binding signal intensity of "HVRRSILALPLGVLL" and report it.
3
